biological target: T1, Anti-PSMA Fab; assay: phage ELISA; biotinylated PSMA Fab on neutravidin plate, clonal phage supernatant, anti-M13 HRP detection;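 note: wells preincubated with PSMA antigen in blocking buffer or with blocking buffer only before clonal phage were added for a short incubation, then bound phage detected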
T1 construct: In the phage ELISA the PSMA Fab was biotinylated and captured on neutravidin coated plates; also called 006 PSMA Fab
QUANTITY KIND: Phage binding ELISA signal, Anti-PSMA Fab

BINDER: PYTLCRPAWMCQAM [Phage-3868]
READING: 1.16
//
BINDER: YELACVPRWMCYGL [Phage-3856]
READING: 1.18
//
BINDER: IESICRPAWMCERL [Phage-3860]
READING: 1.17
//
BINDER: GQGSCVPMWMCEGF [Phage-3866]
READING: 1.16
//
BINDER: QLGACIPWWMCNGF [Phage-3863]
READING: 1.17
//
BINDER: SDHLCIPRWMCVGF [Phage-3857]
READING: 1.18
//
BINDER: EHARCTPAWMCAGF [Phage-3859]
READING: 1.17
//
BINDER: VQIVCSPTWMCTGF [Phage-3861]
READING: 1.17
